Target: T1, biotinylated goat anti-human kappa light chain
T1 construct: Positive control of the ELISA
Experiment: ELISA; positive control; also: test concentration or dose not given here
quantity: optical density (OD)

INSERT INTO assay_data (binder, assay_result) VALUES
  ('374_F02 (antibody, V domains shown, VH/VL only) VH: EVQLLESGGGLVQPGGSLRLSCAASGFTFDSYSMNWVRQAPGKGLEWVANINYNSGYTSYADSVKGRFTISRDNSKNTLYLQMNSLRAEDTAVYYCARSANWHDTALDYWGQGTLVTVSS VL: DIQMTQSPSSLSASVGDRVTITCRASQSIVSYLNWYQQKPGKAPKLLIYAASSLQSGVPSRFSGSGSGTDFTLTISSLQPEDFATYYCQQSYELPLTFGGGTKVEIK', 3.16),
  ('368_H07 (antibody, V domains shown, VH/VL only) VH: EVQLLESGGGLVQPGGSLRLSCAASGFTFSSYGMHWVRQAPGKGLEWVASINYNSGYTSYADSVKGRFTISRDNSKNTLYLQMNSLRAEDTAVYYCARSATWHDTHLDYWGQGTLVTVSS VL: DIQMTQSPSSLSASVGDRVTITCRASQSILSYLNWYQQKPGKAPKLLIYAATSRASGVPSRFSGSGSGTDFTLTISSLQPEDFATYYCQQSYENPLTFGGGTKVEIK', 3.55),
  ('367_F02 (antibody, V domains shown, VH/VL only) VH: EVQLLESGGGLVQPGGSLRLSCAASGFTFDSYSMNWVRQAPGKGLEWVANINYNGGYTSYADSVKGRFTISRDNSKNTLYLQMNSLRAEDTAVYYCARSATWHDTHLDYWGQGTLVTVSS VL: DIQMTQSPSSLSASVGDRVTITCRASQSIISYVNWYQQKPGKAPKLLIYAATSRHSGVPSRFSGSGSGTDFTLTISSLQPEDFATYYCQQSYESPLTFGGGTKVEIK', 3.52);
